These measurements were taken from patent US20150140169.

Target: T1, alpha-s1 casein from Bos taurus
T1 chain: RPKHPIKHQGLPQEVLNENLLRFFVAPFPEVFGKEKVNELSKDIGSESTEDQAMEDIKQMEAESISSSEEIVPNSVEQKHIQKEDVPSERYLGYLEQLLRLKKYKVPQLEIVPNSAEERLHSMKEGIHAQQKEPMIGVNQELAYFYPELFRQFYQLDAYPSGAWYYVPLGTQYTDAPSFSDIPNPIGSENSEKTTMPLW
PARAMETER_MEASURED: αs1-I CN, 6 hours, 11° C. (Volume)
Answers are plain numbers, in Volume.

Hi there! I need αs1-I CN, 6 hours, 11° C. for each item below, if you can.
1. camel chymosin variant #147 (Q288H) (protein) GKVAREPLTSYLDSQYFGKIYIGTPPQEFTVVFDTGSSDLWVPSIYCKSNVCKNHHRFDPRKSSTFRNLGKPLSIHYGTGSMEGFLGYDTVTVSNIVDPNQTVGLSTEQPGEVFTYSEFDGILGLAYPSLASEYSVPVFDNMMDRHLVARDLFSVYMDRNGQGSMLTLGAIDPSYYTGSLHWVPVTLQQYWQFTVDSVTINGVAVACVGGCQAILDTGTSVLFGPSSDILKIQMAIGATENRYGEFDVNCGNLRSMPTVVFEINGRDYPLSPSAYTSKDQGFCTSGFHGDNNSELWILGDVFIREYYSVFDRANNRVGLAKAI
2. Maxiren (recombinant wild-type calf chymosin B) (protein) GEVASVPLTNYLDSQYFGKIYLGTPPQEFTVLFDTGSSDFWVPSIYCKSNACKNHQRFDPRKSSTFQNLGKPLSIHYGTGSMQGILGYDTVTVSNIVDIQQTVGLSTQEPGDVFTYAEFDGILGMAYPSLASEYSIPVFDNMMNRHLVAQDLFSVYMDRNGQESMLTLGAIDPSYYTGSLHWVPVTVQQYWQFTVDSVTISGVVVACEGGCQAILDTGTSKLVGPSSDILNIQQAIGATQNQYGEFDIDCDNLSYMPTVVFEINGKMYPLTPSAYTSQDQGFCTSGFQSENHSQKWILGDVFIREYYSVFDRANNLVGLAKAI

Output line:
2.28e+07
2.12e+07

Quick request: αs1-I CN, 6 hours, 11° C. for each listed item, please.
1. camel chymosin variant #160 (L295K) (protein) GKVAREPLTSYLDSQYFGKIYIGTPPQEFTVVFDTGSSDLWVPSIYCKSNVCKNHHRFDPRKSSTFRNLGKPLSIHYGTGSMEGFLGYDTVTVSNIVDPNQTVGLSTEQPGEVFTYSEFDGILGLAYPSLASEYSVPVFDNMMDRHLVARDLFSVYMDRNGQGSMLTLGAIDPSYYTGSLHWVPVTLQQYWQFTVDSVTINGVAVACVGGCQAILDTGTSVLFGPSSDILKIQMAIGATENRYGEFDVNCGNLRSMPTVVFEINGRDYPLSPSAYTSKDQGFCTSGFQGDNNSEKWILGDVFIREYYSVFDRANNRVGLAKAI
2. camel chymosin variant #166 (I297T) (protein) GKVAREPLTSYLDSQYFGKIYIGTPPQEFTVVFDTGSSDLWVPSIYCKSNVCKNHHRFDPRKSSTFRNLGKPLSIHYGTGSMEGFLGYDTVTVSNIVDPNQTVGLSTEQPGEVFTYSEFDGILGLAYPSLASEYSVPVFDNMMDRHLVARDLFSVYMDRNGQGSMLTLGAIDPSYYTGSLHWVPVTLQQYWQFTVDSVTINGVAVACVGGCQAILDTGTSVLFGPSSDILKIQMAIGATENRYGEFDVNCGNLRSMPTVVFEINGRDYPLSPSAYTSKDQGFCTSGFQGDNNSELWTLGDVFIREYYSVFDRANNRVGLAKAI
3. bovine chymosin B variant #71 (A51V, K221V) (protein) GEVASVPLTNYLDSQYFGKIYLGTPPQEFTVLFDTGSSDFWVPSIYCKSNVCKNHQRFDPRKSSTFQNLGKPLSIHYGTGSMQGILGYDTVTVSNIVDIQQTVGLSTQEPGDVFTYAEFDGILGMAYPSLASEYSIPVFDNMMNRHLVAQDLFSVYMDRNGQESMLTLGAIDPSYYTGSLHWVPVTVQQYWQFTVDSVTISGVVVACEGGCQAILDTGTSVLVGPSSDILNIQQAIGATQNQYGEFDIDCDNLSYMPTVVFEINGKMYPLTPSAYTSQDQGFCTSGFQSENHSQKWILGDVFIREYYSVFDRANNLVGLAKAI
4. camel chymosin variant #146 (Q288G) (protein) GKVAREPLTSYLDSQYFGKIYIGTPPQEFTVVFDTGSSDLWVPSIYCKSNVCKNHHRFDPRKSSTFRNLGKPLSIHYGTGSMEGFLGYDTVTVSNIVDPNQTVGLSTEQPGEVFTYSEFDGILGLAYPSLASEYSVPVFDNMMDRHLVARDLFSVYMDRNGQGSMLTLGAIDPSYYTGSLHWVPVTLQQYWQFTVDSVTINGVAVACVGGCQAILDTGTSVLFGPSSDILKIQMAIGATENRYGEFDVNCGNLRSMPTVVFEINGRDYPLSPSAYTSKDQGFCTSGFGGDNNSELWILGDVFIREYYSVFDRANNRVGLAKAI
5. camel chymosin variant #159 (L295I) (protein) GKVAREPLTSYLDSQYFGKIYIGTPPQEFTVVFDTGSSDLWVPSIYCKSNVCKNHHRFDPRKSSTFRNLGKPLSIHYGTGSMEGFLGYDTVTVSNIVDPNQTVGLSTEQPGEVFTYSEFDGILGLAYPSLASEYSVPVFDNMMDRHLVARDLFSVYMDRNGQGSMLTLGAIDPSYYTGSLHWVPVTLQQYWQFTVDSVTINGVAVACVGGCQAILDTGTSVLFGPSSDILKIQMAIGATENRYGEFDVNCGNLRSMPTVVFEINGRDYPLSPSAYTSKDQGFCTSGFQGDNNSEIWILGDVFIREYYSVFDRANNRVGLAKAI

Output line:
1: 1.81e+07; 2: 1.8e+07; 3: 2.54e+07; 4: 2.17e+07; 5: 1.7e+07

Required: αs1-I CN, 6 hours, 11° C., one value per protein below.
1. camel chymosin variant #149 (Q288R) (protein) GKVAREPLTSYLDSQYFGKIYIGTPPQEFTVVFDTGSSDLWVPSIYCKSNVCKNHHRFDPRKSSTFRNLGKPLSIHYGTGSMEGFLGYDTVTVSNIVDPNQTVGLSTEQPGEVFTYSEFDGILGLAYPSLASEYSVPVFDNMMDRHLVARDLFSVYMDRNGQGSMLTLGAIDPSYYTGSLHWVPVTLQQYWQFTVDSVTINGVAVACVGGCQAILDTGTSVLFGPSSDILKIQMAIGATENRYGEFDVNCGNLRSMPTVVFEINGRDYPLSPSAYTSKDQGFCTSGFRGDNNSELWILGDVFIREYYSVFDRANNRVGLAKAI
2. camel chymosin variant #153 (D290L) (protein) GKVAREPLTSYLDSQYFGKIYIGTPPQEFTVVFDTGSSDLWVPSIYCKSNVCKNHHRFDPRKSSTFRNLGKPLSIHYGTGSMEGFLGYDTVTVSNIVDPNQTVGLSTEQPGEVFTYSEFDGILGLAYPSLASEYSVPVFDNMMDRHLVARDLFSVYMDRNGQGSMLTLGAIDPSYYTGSLHWVPVTLQQYWQFTVDSVTINGVAVACVGGCQAILDTGTSVLFGPSSDILKIQMAIGATENRYGEFDVNCGNLRSMPTVVFEINGRDYPLSPSAYTSKDQGFCTSGFQGLNNSELWILGDVFIREYYSVFDRANNRVGLAKAI

Output line:
1: 2.16e+07; 2: 2.35e+07
